Ref: PubChem BioAssay (NCI)

- Tested on: OVCAR-8 ovarian
- Test method notes: NCI-60 one-dose screen, 48 h
- Measurement conditions: 10 µM unless noted
The panel holds about 83,000 compounds, 20% with a hit somewhere; the sample as a whole holds those more often. The source made the active and inactive calls. Rule for the calls: active = growth percent below 10; inactive = the rest.
Bench note: report the call from active, inactive

Some entries whose results are on file:
molecule=Clc1ccc2nc(-c3ccc(-c4ccc(/C=N/NC5=NCCN5)cc4)s3)cn2c1 target_under_test="OVCAR-8 ovarian" label=inactive
molecule=CN(C)Cc1ccc[nH]1 target_under_test="OVCAR-8 ovarian" label=inactive
molecule="CC[C@]1(O)CC2CN(CCc3c([nH]c4ccccc34)[C@@](C(=O)OC)(c3cc4c(cc3OC)N(C=O)[C@H]3[C@@](O)(C(=O)OC)[C@H](OC(C)=O)[C@]5(CC)C=CCN6CC[C@]43[C@@H]65)C2)C1 (some centres undefined)" target_under_test="OVCAR-8 ovarian" label=inactive
molecule=CC1(C)CC[C@]2(C(=O)O)CC[C@]3(C)C(=CC[C@@H]4[C@@]5(C)C/C(=C/c6cccnc6)[C@H](O)C(C)(C)[C@@H]5CC[C@]43C)[C@@H]2C1 target_under_test="OVCAR-8 ovarian" label=inactive
molecule=CC(=O)Nc1ccc(C=Nc2ccc3ccccc3c2)cc1 target_under_test="OVCAR-8 ovarian" label=inactive

IN: Hi, do you know how `N#C/C(C(=O)c1ccccc1)=C1/C(=O)Nc2ccc(Br)cc21` came out in this test?
OUT: inactive

IN: Hi, do you know how `CC(C)C1=NOC(=O)C1=Cc1cn(-c2ccccc2)nc1-c1ccc(Cl)cc1` came out in this test?
OUT: inactive

IN: Hi, do you know how `COc1cc(C(=O)/C=C/c2c(-c3ccc(F)cc3)nc3sccn23)cc(OC)c1OC` came out in this test?
OUT: inactive

IN: Hi, do you know how COc1ccc2nc3c(cc2c1)C(=O)CC(c1ccccc1)C3 (centres undefined) came out in this test?
OUT: inactive

IN: Hi, do you know how `Cc1nc(Cl)cc(N(c2cc(Cl)nc(C)n2)c2ncc(C(=O)Nc3c(C)cccc3Cl)s2)n1` came out in this test?
OUT: inactive

IN: Hi, do you know how `CC(C)c1ccc(/C=N/N=C(N)N)cc1` came out in this test?
OUT: inactive

IN: Hi, do you know how `Cn1cc(-c2nnc(-c3cn(C)c4ncccc34)s2)c2ccccc21` came out in this test?
OUT: inactive

IN: Hi, do you know how `COc1ccc(-c2nc3ccccn3c2/C=C/C(=O)c2cc(OC)c(OC)c(OC)c2)cc1OC` came out in this test?
OUT: inactive

IN: Hi, do you know how `Fc1cc2[nH]ncc2c2c3c(c(-c4cn[nH]c4)nc12)CCCC3` came out in this test?
OUT: active

* * *

- Tested on: HCT-116 colon
- Test method notes: NCI-60 one-dose screen, 48 h
- Measurement conditions: 10 µM unless noted
About 83,000 compounds went through this panel and 20% of them were active in at least one assay; those are over-represented in the sample as a whole. Activity calls are given as the source filed them. The calls were made as follows: active = growth percent below 10; inactive = the rest.
Bench note: report the call from active, inactive

compound=CCCCCCCCCCCCCC[n+]1cccc(C(N)=O)c1 label=inactive
compound=CC(C)=CCC[C@](C)(O)[C@H]1CC[C@]2(C)[C@@H]1CC[C@@H]1[C@@]3(C)CC[C@H](OC(=O)CCC(=O)O)C(C)(C)[C@@H]3CC[C@]12C label=active
compound=CC(C)C1=NOC(=O)C1=Cc1cn(-c2ccco2)nc1-c1ccccc1 label=inactive
compound=C1=C[C@H]2O[C@@H]1c1ccc3[nH]ccc3c12 label=inactive
compound=C=CCCCCOc1ccccc1-c1cnc(OCCCCC=C)n1C label=inactive

IN: Hi, do you know how `Cc1ccccc1OC(=O)c1cccc(Cl)c1` came out in this test?
OUT: inactive
